Test system: RARb:RXRa (NR concentration 270 nM, RXRa partner concentration 90 nM)
Experiment: PBM binding z-score (relative to random genomic background probes); higher = stronger binding; sequences stand for … in GC…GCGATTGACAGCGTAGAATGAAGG
Categories are assigned from the measured PBM binding z-score using these intervals: lo: < 1; med: ≥ 1 and < 3; hi: ≥ 3

sequence_record=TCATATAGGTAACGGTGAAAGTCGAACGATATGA target_under_test="RARb:RXRa (NR concentration 270 nM, RXRa partner concentration 90 nM)" class=lo
sequence_record=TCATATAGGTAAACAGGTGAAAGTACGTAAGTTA target_under_test="RARb:RXRa (NR concentration 270 nM, RXRa partner concentration 90 nM)" class=lo
sequence_record=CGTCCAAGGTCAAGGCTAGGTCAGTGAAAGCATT target_under_test="RARb:RXRa (NR concentration 270 nM, RXRa partner concentration 90 nM)" class=hi

In: # classify by PBM binding z-score band: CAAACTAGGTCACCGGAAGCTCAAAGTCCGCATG
Out: hi

In: Next: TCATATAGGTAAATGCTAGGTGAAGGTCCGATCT
Out: lo

In: Entry CCGACTGGGGCAAAAGGTTACCATAAGCCAGCCC please
Out: med
